- Tested on: Peripheral Blood Mononuclear Cells
- assay: PBMC cytokine release by Cytometric BeadArray, Activation format (peptide applied to PBMCs alone)
- Assay type: cell-based, human
- Parameters: key: X = a hit with significant activation or inhibition of relevant cytokine release
- measurement.setup: 24 hours, supernatant CBA
reported.endpoint: Activation by Analyte: IP-10

molecule	measured
SEQ ID NO: 3494: target protein of the Sequence Listing, secreted peptide (peptide, listed as Homo sapiens) MSYLPTNPPGSILTCWLGVSLGSHRSARGGSTIYGRLLPRRKDVWFSQAKDVPKYRGLLYLQS	X
